Give measured IC50 for each item. Keep answers brief.
test system: 653999-131-R-J2-PDC complex spheroids, growth inhibition; assay: Anticancer human tumor 653999-131-R-J2-PDC patient-derived lung adenocarcinoma cell line growth inhibition [RAS]; details: curve of first compound; second compound 0.3 µM;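 also: spheroids exposed to the agents for seven days before the readout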

Field: IC50. Fill in for each record below.
1. CC1(O)CCCC1n1c(=O)c(C(F)F)cc2cnc(NC3CCN(S(C)(=O)=O)CC3)nc21 (centres undefined) + CCn1c(-c2cc(N3CCN(C)CC3)cnc2C(C)OC)c2c3cc(ccc31)-c1csc(n1)CC(NC(=O)C1CC1C)C(=O)N1CCCC(N1)C(=O)OCC(C)(C)C2
2. CC(=O)OC12COC1CC(O)C1(C)C(=O)C(O)C3=C(C)C(OC(=O)C(O)C(NC(=O)OC(C)(C)C)c4ccccc4)CC(O)(C(OC(=O)c4ccccc4)C21)C3(C)C (centres undefined) + CCn1c(-c2cc(N3CCN(C)CC3)cnc2C(C)OC)c2c3cc(ccc31)-c1csc(n1)CC(NC(=O)C1CC1C)C(=O)N1CCCC(N1)C(=O)OCC(C)(C)C2
3. Cc1nc(N2CCC3(CC2)COC(C)C3N)c(CO)nc1Sc1ccnc(N)c1Cl (centres undefined) + CCn1c(-c2cc(N3CCN(C)CC3)cnc2C(C)OC)c2c3cc(ccc31)-c1csc(n1)CC(NC(=O)C1CC1C)C(=O)N1CCCC(N1)C(=O)OCC(C)(C)C2

*A*
1: < 31.6 nM; 2: < 31.6 nM; 3: < 31.6 nM

*Q* Any idea what IC50 was measured for CC(C)n1nc(-c2ccc3oc(N)nc3c2)c2c(N)ncnc21 + CCn1c(-c2cccnc2C(C)OC)c2c3cc(ccc31)N1CCOC(CC(NC(=O)C(C(C)C)N(C)C(=O)C3(F)CCN(C(=O)C#CC(C)(C)N(C)C)CC3)C(=O)N3CCCC(N3)C(=O)OCC(C)(C)C2)C1 ?
*A* 17.7 nM
